Quick list: IC50 per entry.
study system: T1, human myostatin (mature, recombinant; R&D Systems) (human, UniProt O14793 267-375)
T1 construct: biotinylated in the mRNA display selection; also called GDF-8; mature myostatin
T1 sequence: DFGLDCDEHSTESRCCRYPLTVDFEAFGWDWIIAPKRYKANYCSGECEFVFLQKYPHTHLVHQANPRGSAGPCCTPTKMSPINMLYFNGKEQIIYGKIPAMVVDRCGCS
run description: competitive HTRF, alanine scan
Record the value in nM, omitting the unit from your answer.

Worked set:
>  <binder>
3116_A06 Y88A (designed binder) MGVSDVPRDLEVVAATPTSLLISWSLPHQGKANYYRITYGETGGNSPVQEFTVPGRGVTATISGLKPGVDYTITVYAVTVTDTGYLKAKPISINYRTEIDKPSQHHHHHH

>  <IC50 [nM]>
11

$$$$
>  <binder>
3116_A06 R56A (designed binder) MGVSDVPRDLEVVAATPTSLLISWSLPHQGKANYYRITYGETGGNSPVQEFTVPGAGVTATISGLKPGVDYTITVYAVTVTDTGYLKYKPISINYRTEIDKPSQHHHHHH

>  <IC50 [nM]>
55

$$$$
>  <binder>
3116_A06 Q29A (designed binder) MGVSDVPRDLEVVAATPTSLLISWSLPHAGKANYYRITYGETGGNSPVQEFTVPGRGVTATISGLKPGVDYTITVYAVTVTDTGYLKYKPISINYRTEIDKPSQHHHHHH

>  <IC50 [nM]>
0.7

$$$$
>  <binder>
3116_A06 G30A (designed binder) MGVSDVPRDLEVVAATPTSLLISWSLPHQAKANYYRITYGETGGNSPVQEFTVPGRGVTATISGLKPGVDYTITVYAVTVTDTGYLKYKPISINYRTEIDKPSQHHHHHH

>  <IC50 [nM]>
5.1

$$$$
>  <binder>
3116_A06 P27A (designed binder) MGVSDVPRDLEVVAATPTSLLISWSLAHQGKANYYRITYGETGGNSPVQEFTVPGRGVTATISGLKPGVDYTITVYAVTVTDTGYLKYKPISINYRTEIDKPSQHHHHHH

>  <IC50 [nM]>
1

$$$$
>  <binder>
3116_A06 L26A (designed binder) MGVSDVPRDLEVVAATPTSLLISWSAPHQGKANYYRITYGETGGNSPVQEFTVPGRGVTATISGLKPGVDYTITVYAVTVTDTGYLKYKPISINYRTEIDKPSQHHHHHH

>  <IC50 [nM]>
2.3

$$$$

For the binder 3116_A06 T83A (designed binder) MGVSDVPRDLEVVAATPTSLLISWSLPHQGKANYYRITYGETGGNSPVQEFTVPGRGVTATISGLKPGVDYTITVYAVTVTDAGYLKYKPISINYRTEIDKPSQHHHHHH , report IC50.
1.3

Input 3116_A06 (designed binder, also called WT parent) MGVSDVPRDLEVVAATPTSLLISWSLPHQGKANYYRITYGETGGNSPVQEFTVPGRGVTATISGLKPGVDYTITVYAVTVTDTGYLKYKPISINYRTEIDKPSQHHHHHH , output reported IC50.
0.3

Complete the entry with IC50 for 3116_A06 L86A (designed binder) MGVSDVPRDLEVVAATPTSLLISWSLPHQGKANYYRITYGETGGNSPVQEFTVPGRGVTATISGLKPGVDYTITVYAVTVTDTGYAKYKPISINYRTEIDKPSQHHHHHH
1.4
